System: Ovis aries
Assay: Percent reduction in Trichostrongylus eggs per gram, after treatment with 400 mg/kg dose of compound perorally in sheep
Format: functional, Egg
Settings: route oral
Assay readout: Reduction (%)
State the answer as a number, implicitly in %.

Consider the reported Reduction for these molecules:
- Smiles structure: "FC(F)(F)c1cccc(/C(Cl)=N/Nc2ccccc2)c1"
  Unit text: "%"
  Reduction: 100
- Smiles structure: "CSc1ccc(/C(Cl)=N/Nc2ccccc2)cc1"
  Unit text: "%"
  Reduction: 100
- Smiles structure: "Fc1c(F)c(F)c(/C(Cl)=N/Nc2ccccc2)c(F)c1F"
  Unit text: "%"
  Reduction: 96

As a next step, examine the molecule that follows.
Noted Reduction for Cl/C(=N\Nc1c(Cl)cc(Cl)cc1Cl)c1ccccc1 , tested on Ovis aries: 77
